Measured pKd of individual entries
biological target: T1, mouse serum albumin (mouse, UniProt P07724 25-608); test: BIAcore SPR;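 further: purified dAbs run at 1 µM, 500 nM and 50 nM over human, cynomolgus, mouse and rat serum albumin in BIAcore binding measurements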
T1 construct: mature; purified protein on CM5 chips for BIAcore; also called MSA; mouse SA
T1 sequence (P07724 25-608): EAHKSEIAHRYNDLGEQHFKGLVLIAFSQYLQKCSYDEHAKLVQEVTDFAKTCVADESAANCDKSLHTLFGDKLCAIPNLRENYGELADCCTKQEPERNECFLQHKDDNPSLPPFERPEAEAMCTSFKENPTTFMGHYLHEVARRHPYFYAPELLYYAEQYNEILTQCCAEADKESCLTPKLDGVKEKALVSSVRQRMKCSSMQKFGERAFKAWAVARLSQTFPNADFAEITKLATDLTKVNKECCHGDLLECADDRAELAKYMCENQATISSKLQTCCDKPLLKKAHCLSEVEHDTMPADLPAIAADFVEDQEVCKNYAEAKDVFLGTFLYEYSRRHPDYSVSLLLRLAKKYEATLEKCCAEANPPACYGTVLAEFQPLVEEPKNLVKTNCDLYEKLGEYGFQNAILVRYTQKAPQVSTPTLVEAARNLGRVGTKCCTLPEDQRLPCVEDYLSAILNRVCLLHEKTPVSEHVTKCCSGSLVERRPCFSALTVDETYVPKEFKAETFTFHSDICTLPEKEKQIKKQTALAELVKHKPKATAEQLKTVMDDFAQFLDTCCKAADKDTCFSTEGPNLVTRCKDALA
pKd: −log10 of the molar value.
assay_endpoint: pKd

{"binder": "DOM7h-14 (other, Vk dAb (AlbudAb)) VL: DIQMTQSPSSLSASVGDRVTITCRASQWIGSQLSWYQQKPGKAPKLLIMWRSSLQSGVPSRFSGSGSGTDFTLTISSLQPEDFATYYCAQGAALPRTFGQGTKVEIKR", "measured_result": 7.92}
{"binder": "DOM7h-11-12 (other) VL: DIQMTQSPSSLSASVGDRVTITCRASRPIGTMLSWYQQKPGKAPKLLILFGSRLQSGVPSRFSGSGSGTDFTLTISSLQPEDFATYYCAQAGTHPTTFGQGTKVEIKR", "measured_result": 6.89}
{"binder": "DOM7h-14-10 (other, Vk dAb (AlbudAb)) VL: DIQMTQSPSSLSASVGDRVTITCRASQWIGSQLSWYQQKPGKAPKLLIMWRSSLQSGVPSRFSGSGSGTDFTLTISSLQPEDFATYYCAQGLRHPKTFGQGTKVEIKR", "measured_result": 7.52}
{"binder": "DOM7h-11 (other) VL: DIQMTQSPSSLSASVGDRVTITCRASRPIGTTLSWYQQKPGKAPKLLIWFGSRLQSGVPSRFSGSGSGTDFTLTISSLQPEDFATYYCAQAGTHPTTFGQGTKVEIKR", "measured_result": 5.30}
